// koff lookup, one value per entry
Target: T1, human-CD40 monomer (human, UniProt P25942 21-193, limits assumed)
T1 construct: also called hCD40-monomer; human-CD40-monomer protein
T1 sequence (P25942 21-193 limits assumed): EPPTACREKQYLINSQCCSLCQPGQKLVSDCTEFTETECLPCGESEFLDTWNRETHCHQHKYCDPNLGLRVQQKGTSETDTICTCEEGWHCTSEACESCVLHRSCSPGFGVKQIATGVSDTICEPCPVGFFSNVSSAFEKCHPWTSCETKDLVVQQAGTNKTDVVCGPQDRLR
Experiment: SPR 2 pt screen, Ab on protein A
Use s⁻¹ as the unit, but write only the number.

Lab note: humanized Y1238 hz54 (hz-HC11 / hz-LC4), IgG1.3f (antibody, V domains shown, IgG1.3f heavy constant, common CL; expression supernatant; also called Sup 54) VH: QVQLVQSGAEVKKPGASVKVSCKASGYAFTNYLIEWVRQRPGQGLEWMGVINPGSGGTNYNEKFKGRVTMTRDKSSSTAYMELSRLRSDDTAVYFCARSQLGRRFDYWGQGTLVTVSS VL: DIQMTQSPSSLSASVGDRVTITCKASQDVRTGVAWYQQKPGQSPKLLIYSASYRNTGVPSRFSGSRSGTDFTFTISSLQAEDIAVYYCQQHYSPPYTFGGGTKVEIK gave koff of 0.00056

Lab note: humanized Y1238 hz2 (hz-HC1 / hz-LC2), IgG1.3f (antibody, V domains shown, IgG1.3f heavy constant, common CL; expression supernatant; also called Sup 2) VH: QVQLVQSGAEVKKPGASVKVSCKASGYAFTNYLIEWVRQAPGQGLEWMGVINPGSGGTNYNEKFKGRVTMTRDTSISTAYMELSRLRSDDTAVYYCARSQLGRRFDYWGQGTLVTVSS VL: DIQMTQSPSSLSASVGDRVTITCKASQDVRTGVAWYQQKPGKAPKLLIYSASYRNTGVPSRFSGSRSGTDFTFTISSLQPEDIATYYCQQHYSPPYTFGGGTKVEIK gave koff of 0.00023

Lab note: humanized Y1238 hz37 (hz-HC8 / hz-LC2), IgG1.3f (antibody, V domains shown, IgG1.3f heavy constant, common CL; expression supernatant; also called Sup 37) VH: QVQLVQSGAEVVKPGASVKVSCKASGYAFTNYLIEWVRQRPGQGLEWMGVINPGSGGTNYNEKFKGRVTLTADKSSSTAYMQLSRLRSDDTAVYFCARSQLGRRFDYWGQGTLVTVSS VL: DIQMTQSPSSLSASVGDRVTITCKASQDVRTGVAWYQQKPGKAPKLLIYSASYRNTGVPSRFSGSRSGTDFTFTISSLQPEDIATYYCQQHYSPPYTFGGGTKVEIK gave koff of 0.00011

Lab note: humanized Y1238 hz48 (hz-HC10 / hz-LC3), IgG1.3f (antibody, V domains shown, IgG1.3f heavy constant, common CL; expression supernatant; also called Sup 48) VH: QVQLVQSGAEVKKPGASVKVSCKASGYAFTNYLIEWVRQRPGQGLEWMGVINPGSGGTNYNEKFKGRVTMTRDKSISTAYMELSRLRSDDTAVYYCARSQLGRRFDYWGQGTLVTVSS VL: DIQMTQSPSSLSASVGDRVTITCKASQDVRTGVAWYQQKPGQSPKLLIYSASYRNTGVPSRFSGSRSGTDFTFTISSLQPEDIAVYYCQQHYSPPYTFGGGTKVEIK gave koff of 0.00055

Lab note: humanized Y1238 hz3 (hz-HC1 / hz-LC3), IgG1.3f (antibody, V domains shown, IgG1.3f heavy constant, common CL; expression supernatant; also called Sup 3) VH: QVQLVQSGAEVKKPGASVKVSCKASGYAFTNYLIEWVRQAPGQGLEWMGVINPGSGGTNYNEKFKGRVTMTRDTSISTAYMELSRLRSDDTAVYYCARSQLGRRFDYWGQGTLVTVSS VL: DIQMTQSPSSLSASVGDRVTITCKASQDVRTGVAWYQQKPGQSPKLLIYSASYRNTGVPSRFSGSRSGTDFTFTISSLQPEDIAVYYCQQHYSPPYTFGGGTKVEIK gave koff of 0.00048
